Target chain: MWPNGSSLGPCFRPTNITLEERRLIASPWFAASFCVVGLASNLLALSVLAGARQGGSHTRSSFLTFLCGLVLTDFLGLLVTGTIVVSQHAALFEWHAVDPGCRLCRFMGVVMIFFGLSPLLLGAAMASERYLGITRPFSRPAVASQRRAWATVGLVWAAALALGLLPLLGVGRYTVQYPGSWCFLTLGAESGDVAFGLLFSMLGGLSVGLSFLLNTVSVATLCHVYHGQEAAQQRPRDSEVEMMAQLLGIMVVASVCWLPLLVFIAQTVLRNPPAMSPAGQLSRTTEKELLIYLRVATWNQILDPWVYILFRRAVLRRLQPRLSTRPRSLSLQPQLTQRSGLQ
QUANTITY: Kd (nM)
One number for each entry, in nM.

Reported Kd of O=C(O)CCc1ccccc1CN1CCCC1c1nc(C(=O)NCCCCC2CCCCC2)co1 (stereo unspecified) : 11
